System: Malme-3M
Method Notes: NCI tumour cell line growth inhibition, 48 h
Calls of active or inactive are those of the source. Rule as the data show it: active = GI50 up to about 1.1 µM and inactive = higher.
Possible outcomes: active, inactive

[
  {
    "Molecule": "COc1cc(C=O)ccc1Oc1nnnn1-c1ccccc1",
    "Target Desc": "Malme-3M",
    "Assigned Category": "inactive"
  },
  {
    "Molecule": "O=C1CCCN1C(=O)CS(=O)(=O)c1ccccc1",
    "Target Desc": "Malme-3M",
    "Assigned Category": "inactive"
  },
  {
    "Molecule": "NNC(=O)N/N=C(/CC1(O)C(=O)Nc2ccc(Br)cc21)c1ccccc1 (stereo unspecified)",
    "Target Desc": "Malme-3M",
    "Assigned Category": "inactive"
  },
  {
    "Molecule": "COc1ccc(Cc2ccc3nc(O)cc(C)c3c2)cc1S(=O)(=O)O",
    "Target Desc": "Malme-3M",
    "Assigned Category": "inactive"
  },
  {
    "Molecule": "O=C(Cc1nc(-c2ccccc2)cc(=O)n1-c1ccccc1Cl)c1ccncc1",
    "Target Desc": "Malme-3M",
    "Assigned Category": "inactive"
  },
  {
    "Molecule": "C/C(=N\\Nc1nc2cc(C)ccc2s1)c1ccccn1",
    "Target Desc": "Malme-3M",
    "Assigned Category": "active"
  }
]
